Origin of the recorded values: ChEMBL document CHEMBL3526105

System: Liver microsome
Test: Drug metabolism in human liver microsomes assessed as intrinsic clearance per mg protein treated with JWH-018
Type: ADME
Measurement Kind: CLH (µL/min/mg)
State the answer as a number, implicitly in µL/min/mg.

For CCCCCn1cc(C(=O)c2cccc3ccccc23)c2ccc(O)cc21 the compound record lists CLH as 1

Looking up O=C(O)CCCCn1cc(C(=O)c2cccc3ccccc23)c2ccccc21 , I see its CLH listed as 0

The reported value for CCCCCn1cc(C(=O)c2cccc3ccccc23)c2cccc(O)c21 in terms of CLH is 0

Looking up CC(O)CCCn1cc(C(=O)c2cccc3ccccc23)c2ccccc21 (stereo unspecified) , I see its CLH listed as 0.574

// field: CLH; key: CCCCCn1cc(C(=O)c2cccc3ccccc23)c2cc(O)ccc21 ; value = 0.52

# CLH of O=C(c1cccc2ccccc12)c1cn(CCCCCO)c2ccccc12 = 0.5
